log10 Ratio by entry:
Study System: UniProtKB P43235
Sequence (whole entry): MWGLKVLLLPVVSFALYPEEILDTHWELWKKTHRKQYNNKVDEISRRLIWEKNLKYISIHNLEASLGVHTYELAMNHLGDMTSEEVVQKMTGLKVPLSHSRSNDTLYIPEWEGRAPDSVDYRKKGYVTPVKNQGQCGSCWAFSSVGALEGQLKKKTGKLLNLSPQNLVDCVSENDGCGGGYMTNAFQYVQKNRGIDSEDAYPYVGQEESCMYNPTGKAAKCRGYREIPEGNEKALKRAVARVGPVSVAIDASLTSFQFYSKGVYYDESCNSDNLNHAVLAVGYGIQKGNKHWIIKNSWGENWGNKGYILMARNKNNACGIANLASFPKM
Assay: Irreversible inhibition of human cathepsin K using Z-Leu-Arg-AMC as substrate assessed as ratio of Kinac/Ki after 10 to 80 mins by fluorimetric analysis
Reported Endpoint: log10 Ratio (log10 of the value in M⁻¹ s⁻¹)

Compound | Val
CCOC(=O)/C=C/CNC(=O)[C@H](CC(C)C)NC(=O)OC(C)(C)C | 4.06
CC(C)C[C@H](NC(=O)OC(C)(C)C)C(=O)NC/C=C/S(=O)(=O)c1ccccc1 | 4.26
CCOC(=O)/C=C/CNC(=O)[C@H](Cc1ccccc1)NC(=O)CCNC(=O)OC(C)(C)C | 2.88
CCOC(=O)/C=C/CNC(=O)[C@H](CC(C)C)NC(=O)CCNC(=O)OC(C)(C)C | 3.46
CC(C)C[C@H](NC(=O)CCNC(=O)OC(C)(C)C)C(=O)NC/C=C/S(=O)(=O)c1ccccc1 | 4.10
CC(C)(C)OC(=O)NCCC(=O)N[C@@H](Cc1ccccc1)C(=O)NC/C=C/S(=O)(=O)c1ccccc1 | 3.35
CC(C)(C)OC(=O)N[C@@H](Cc1ccccc1)C(=O)NC/C=C/S(=O)(=O)c1ccccc1 | 3.12
CCOC(=O)/C=C/CNC(=O)[C@H](Cc1ccccc1)NC(=O)OC(C)(C)C | 2.88
CC(C)C[C@H](NC(=O)COCCOCCNC(=O)OC(C)(C)C)C(=O)NC/C=C/S(=O)(=O)c1ccccc1 | 1.41
CCOC(=O)/C=C/CNC(=O)[C@H](Cc1ccccc1)NC(=O)COCCOCCNC(=O)OC(C)(C)C | 2.47

* * *

Study System: Cathepsin K (Homo sapiens) (UniProt P43235)
Sequence (whole entry): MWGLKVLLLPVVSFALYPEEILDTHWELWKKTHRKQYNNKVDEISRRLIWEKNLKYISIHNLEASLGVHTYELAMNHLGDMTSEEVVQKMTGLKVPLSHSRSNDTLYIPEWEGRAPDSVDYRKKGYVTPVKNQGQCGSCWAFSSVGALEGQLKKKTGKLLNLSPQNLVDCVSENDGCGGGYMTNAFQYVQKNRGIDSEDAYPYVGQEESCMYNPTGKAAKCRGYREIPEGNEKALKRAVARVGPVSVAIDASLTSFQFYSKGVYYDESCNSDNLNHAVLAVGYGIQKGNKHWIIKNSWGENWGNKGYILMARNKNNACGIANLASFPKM
Assay: Irreversible inhibition of human cathepsin K using Z-Leu-Arg-AMC as substrate by fluorimetric analysis
Cond: TDE = time-dependent effect

Compound | inhibition
CC(C)(C)OC(=O)N[C@@H](Cc1ccccc1)C(=O)NC/C=C/S(=O)(=O)c1ccccc1 | Tde
CC(C)C[C@H](NC(=O)CCNC(=O)OC(C)(C)C)C(=O)NC/C=C/S(=O)(=O)c1ccccc1 | Tde
CCOC(=O)/C=C/CNC(=O)[C@H](Cc1ccccc1)NC(=O)CCNC(=O)OC(C)(C)C | Tde
CC(C)(C)OC(=O)NCCC(=O)N[C@@H](Cc1ccccc1)C(=O)NC/C=C/S(=O)(=O)c1ccccc1 | Tde
CCOC(=O)/C=C/CNC(=O)[C@H](Cc1ccccc1)NC(=O)COCCOCCNC(=O)OC(C)(C)C | Tde

* * *

Reported Ratio is given for each of the following compounds.
Study System: Procathepsin L (Homo sapiens)
Assay: Irreversible inhibition of human cathepsin L using Z-Phe-Arg-pNA as substrate assessed as ratio of Kinac/Ki after 10 to 80 mins by photometric analysis
Reported Endpoint: Ratio (M⁻¹ s⁻¹)

Compound | Study System | Val
CC(C)(C)OC(=O)N[C@@H](Cc1ccccc1)C(=O)NC/C=C/S(=O)(=O)c1ccccc1 | Procathepsin L (Homo sapiens) | 5880
CC(C)C[C@H](NC(=O)COCCOCCNC(=O)OC(C)(C)C)C(=O)NC/C=C/S(=O)(=O)c1ccccc1 | Procathepsin L (Homo sapiens) | 3310
CC(C)(C)OC(=O)NCCC(=O)N[C@@H](Cc1ccccc1)C(=O)NC/C=C/S(=O)(=O)c1ccccc1 | Procathepsin L (Homo sapiens) | 12800
CC(C)C[C@H](NC(=O)CCNC(=O)OC(C)(C)C)C(=O)NC/C=C/S(=O)(=O)c1ccccc1 | Procathepsin L (Homo sapiens) | 671
CCOC(=O)/C=C/CNC(=O)[C@H](CC(C)C)NC(=O)OC(C)(C)C | Procathepsin L (Homo sapiens) | 1280
